Readout label: pKd
The meaning of pKd here: minus log10 of the concentration in molar units.

Form field - read-out: pKd; system: WT CYP3A4 (Homo sapiens, UniProt P08684); submitted item: CCCCCc1cc(O)c2c(c1)OC(C)(C)[C@@H]1CCC(C)=C[C@@H]21 [THC, (−)-trans-Δ^9-tetrahydrocannabinol]
Sequence (P08684 with tags, fused parts or gaps): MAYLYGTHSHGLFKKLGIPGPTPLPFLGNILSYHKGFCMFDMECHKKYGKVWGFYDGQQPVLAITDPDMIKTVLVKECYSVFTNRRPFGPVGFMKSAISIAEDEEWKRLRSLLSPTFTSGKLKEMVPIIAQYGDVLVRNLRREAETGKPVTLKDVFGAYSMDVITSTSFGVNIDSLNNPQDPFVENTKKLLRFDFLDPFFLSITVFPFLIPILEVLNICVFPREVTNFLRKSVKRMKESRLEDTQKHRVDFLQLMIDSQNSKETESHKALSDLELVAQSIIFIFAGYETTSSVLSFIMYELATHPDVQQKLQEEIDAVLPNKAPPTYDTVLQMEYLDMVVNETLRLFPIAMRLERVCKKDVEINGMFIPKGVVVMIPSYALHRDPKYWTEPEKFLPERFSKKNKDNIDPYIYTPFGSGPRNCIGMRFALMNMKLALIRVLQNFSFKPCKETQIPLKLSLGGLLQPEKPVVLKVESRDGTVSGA
5.72

---

# Tested target: CYP3A4 S119A (Homo sapiens, UniProt P08684, S119A)
# Sequence (P08684 with tags, fused parts or gaps S119A): as the sequence (P08684 with tags, fused parts or gaps) above, with S99A counted along it
# Protocol description: biochemical
Readout label: Kd (µM)
Write the number in µM without appending the unit.

Dear colleague, I am looking for the recorded Kd of the following compound: CCCCCc1cc(O)c2c(c1)OC(C)(C)[C@@H]1CCC(C)=C[C@@H]21 [THC, (−)-trans-Δ^9-tetrahydrocannabinol]
3
